System: LOX IMVI melanoma
Test: NCI-60 one-dose screen, 48 h (100 = growth as untreated, 0 = no growth, -100 = all killed)
Details: 10 µM unless noted
The panel holds about 83,000 compounds, 20% with a hit somewhere; the sample as a whole holds those more often.
Group membership follows growth per the scheme bin 1 = under 20%, bin 2 = from 20% up to 80%, bin 3 = 80% and over

* Fc1cc2c(cc1Cl)N(c1ncnc3ccc(-c4ccc5n[nH]nc5c4)cc13)CC2 | bin 3
* O=C(Nc1ccc(OS(=O)(=O)c2ccc(F)cc2)cc1)C1CCCCCC1 | bin 3
* CC(C)c1ccc(C(=O)Nc2sc3c(c2C(N)=O)CCC(=O)C3)cc1 | bin 1
* CCCCCCCCCc1ccc(OCCOCCOCCOCCOCCOCCOCCOCCOCCO)cc1 | bin 1
* CCOCCNC1=C(Cl)C(=O)c2ccccc2C1=O | bin 2
* O=C1NC(=C(Cl)Cl)/C(=N\S(=O)(=O)NCc2ccccc2)N1 | bin 3
* COCCNC(=O)Nc1ccc2nc(-c3cccs3)c(-c3cccs3)nc2c1 | bin 3
* N#Cc1ccc(O)c(C2=NCC(c3cccc(Oc4ccccc4)c3)O2)c1 (stereo not given) | bin 2
* Cc1cn(-c2cc(NC(=O)c3cccc(C#Cc4cccc5[nH]nc(N)c45)c3)cc(C(F)(F)F)c2)cn1 | bin 1

---

Test system: IGROV1 ovarian
Assay: NCI-60 one-dose screen, 48 h (100 = growth as untreated, 0 = no growth, -100 = all killed)
Conditions: 10 µM unless noted
Procedure: Growth inhibition of the IGROV1 human tumor cell line is measured as a screen for anti-cancer activity. Cells are grown in 96 well plates and exposed to the test compound for 48 hours. Compounds are tested at a single concentration, which is 10^-5 M for most compounds. The reported endpoint is percent growth (GI% or GIPRCNT), where numbers from 0 - 100% represent growth inhibition, and numbers from -100% - 0 represent cell death. For example, a value of 40 represents 60% growth inhibition. […]
About 83,000 compounds went through this panel and 20% of them were active in at least one assay; those are over-represented in the sample as a whole.
With a cut-off of 50%, any growth strictly below it is called Criterion met; any growth meeting it or above is called Criterion not met.

• c1ccc2cc(C[n+]3ccn(CCCCCCCCCCn4cc[n+](Cc5ccc6ccccc6c5)c4)c3)ccc2c1 = Criterion met
• Clc1ccc2c(c1)C(c1c[nH]c3ccccc13)(c1c[nH]c3ccccc13)CCO2 = Criterion not met
• O=C(OC(CO)C(=O)NC12CC3CC(CC(C3)C1)C2)c1ccc(Cl)cc1 (stereo not given) = Criterion not met
• COc1cc(OC)c(/C=C/C(=O)c2c(OC)cccc2OC)c(OC)c1 = Criterion met
• O=C(Nc1nc(-c2ccc(Cl)cc2)nc2c1sc(=S)n2-c1ccccc1)C(F)(F)F = Criterion met
• COc1ccccc1CNc1c2ccccc2nc2ccccc12 = Criterion met
• COc1ccc(C(=O)Nc2cccc(-c3cc(=O)c4c(OC)c(OC)c(OC)cc4o3)c2)cc1 = Criterion not met
• COc1ccccc1N1CCCCC1 = Criterion not met
• COc1ccc(-c2noc(C(=O)O)c2-c2cc(OC)c(OC)c(OC)c2)cc1 = Criterion met
• Cc1ccc(C[P+](c2ccccc2)(c2ccccc2)c2ccccc2)cc1 = Criterion met

---

System: COLO 205 colon
Assay: NCI-60 one-dose screen, 48 h (100 = growth as untreated, 0 = no growth, -100 = all killed)
Details: 10 µM unless noted
About 83,000 compounds went through this panel and 20% of them were active in at least one assay; those are over-represented in the sample as a whole.
growth under 90% gets Yes, anything at or over 90% gets No.

• COc1cc2c(c(OC)c1OC)CCC(c1cccc(NC(=O)c3ccc(Br)cc3)c1)O2 (stereo not given) = Yes
• O=C(/C=C/c1cccs1)Nc1ncc(Cc2ccccc2F)s1 = Yes
• O=c1[nH]c(-c2ccccc2)nc2sc3cc(O)ccc3c12 = No
• COc1cc2nc3cc([N+](=O)[O-])ccc3c(NCCNCC(C)O)c2cc1OC (stereo not given) = Yes
• O=C(/C=C/c1cn(-c2ccccc2)nc1-c1ccc(Cl)cc1)c1ccc(F)cc1 = No
• CCNCCNc1cc(-c2ccc(C(F)(F)F)cc2)c(C#N)c2nc3ccccc3n12 = Yes
• O=C1c2c(c3c4ccccc4[nH]c3c3ccc4ccccc4c23)C(=O)N1CCN1CCOCC1 = Yes
• CC(=O)/C(=C\c1c(-c2ccccc2)[nH]c2ccccc12)S(C)(=O)=O = Yes
• Cc1ccc(Nc2cc(N)nc(N)n2)cc1Cl = No
• COc1ccc(-c2cc(-c3cc(OC)c(OC)c(OC)c3)c(C#N)c(=O)n2CCCCC(=O)NO)cc1 = Yes
• O=C(COc1ccc(-c2nc3cc(Cl)c(Cl)cc3[nH]2)cc1)N=Nc1c(O)[nH]c2ccc(Cl)cc12 = Yes
• N=C(N)c1ccc(-c2ccc(-c3ccc(Cl)c(Cl)c3)s2)nc1 = Yes
• COC12C=C/C(=C(/C(=O)OCc3ccncn3)C(=O)CCCCCCCCC3(OC)C=C/C(=C(/C(=O)OCc4ccncn4)C(=O)CCCCCCCC1)O3)O2 = Yes
• O=C(CN1C(=O)NC2NC(=O)NC21)N/N=C/c1ccccc1[N+](=O)[O-] (stereo not given) = No
• COc1ccc2[nH]c(C(=O)N3CCN(C(=O)OCc4ccc5c(Cl)cc(Cl)c(O)c5n4)CC3)cc2c1 = Yes
• COc1cc(-c2nccc3[nH]c(-c4ccc5cc[nH]c5c4)nc23)cc(OC)c1OC = Yes
• NC(=O)c1c(NC(=O)c2ccc3ccccc3c2)sc2c1CCC(=O)C2 = Yes
• Cc1cccc(/C=C/c2c(C(=O)/C=C/c3ccccc3)c(C)nc3ccccc23)c1 = Yes
• CCCCNCCCCCNc1cc(OC)cc2cccnc12 = No
• COCCn1cc(-c2csc(-c3cn(C)c4ccc(Br)cc34)n2)c2cccnc21 = Yes
• N#Cc1nc(-c2ccccc2)oc1S(=O)(=O)N1CCN(c2ccccc2)CC1 = No
• COC(=O)CC[C@@H]1O[C@@H](c2cccc(C(F)(F)F)c2)[C@@H](O)[C@H]1O = No
• Oc1c(Br)cc(Br)c2ccc(Cn3cc(-c4ccccc4C(F)(F)F)nn3)nc12 = No
• C=CC[Se]C(=O)Cc1c(C)n(C(=O)c2ccc(Cl)cc2)c2ccc(OC)cc12 = Yes
• O=C(NCc1ccc(Cl)cc1Cl)C1CCC(=O)N1c1cccs1 (stereo not given) = No
• O=C(NCCCl)Nc1ncccc1OCc1ccccc1 = No
• CCOC(=O)C/C(=N\Nc1cc(=O)[nH]c2ccc(Br)cc12)C(=O)OCC = No
• OCCn1cc(-c2nc(-c3c[nH]c4ncccc34)cs2)c2cc(F)ccc21 = Yes
• CSc1nc(N)c(NS(=O)(=O)c2ccc(C(C)=O)cc2)c(=O)[nH]1 = No
• CC/C(=C(/c1ccc(Cl)cc1)c1ccc(OCCN(C)C)cc1)c1ccc(Cl)cc1 = Yes
• CCOc1nc(-c2ccccc2)cc2c(O)c(C(=O)N/N=C/c3ccccc3)[nH]c(=O)c12 = No
• c1ccc2cc(C[n+]3ccn(CCCCCCCCCCn4cc[n+](Cc5ccc6ccccc6c5)c4)c3)ccc2c1 = Yes
• Oc1ccc(Cl)cc1/C=N\NC(=S)N/N=C/c1cc(Cl)ccc1O = Yes
• O=C(NNC(=O)c1ccc(NC(=O)c2ccccn2)cc1)Nc1ccc([N+](=O)[O-])cc1 = No
• O=S(=O)(NCCNc1nccc(-c2c(-c3ccc(F)c(O)c3)nc3occn23)n1)c1ccc(Cl)cc1 = Yes
• Cc1c[n+](Cc2ccc3ccccc3c2)cn1Cc1ccc2ccccc2c1 = Yes
• N#Cc1ccc2c(c1)C(=O)c1c-2n(CCCN)c(=O)c2cc([N+](=O)[O-])ccc12 = Yes
• CCOC(=O)n1ccn(C)c1=S = Yes
• COc1cc(-c2csc(NC(=O)c3ccc(N4CCOCC4)c(C(F)(F)F)c3)n2)cc(OC)c1OC = Yes
